QUANTITY_KIND: melting point

The following compounds have reported results that may help.
1) COc1ccc(N2CCOCC2)c2sc(NC(=O)N(C)C3CC4CCC3O4)nc12 (single isomer, unassigned) [Example 7] ... 202 to 204 °C
2) COc1ccc(N2CCOCC2)c2sc(NC(=O)N(C)C3CC4CCC3C4)nc12 (racemic) [Example 6] ... 199 to 202 °C
3) COc1ccc(N2CCOCC2)c2sc(NC(=O)N(C)C34CC5CC(CC(C5)C3)C4)nc12 [Example 12] ... 165 to 176 °C

Now turn to the next compound.
// recorded melting point for COC[C@H]1CC[C@H](N(C)C(=O)Nc2nc3c(OC)ccc(N4CCOCC4)c3s2)CC1 [Example 4] : 141 to 143 °C

###

Ki values, listed per item
# EXPERIMENTAL_SYSTEM: human adenosine A2A receptor (Homo sapiens)
# Construct: expressed in transfected cells; host or cells: CHO cells, semliki forest virus expression system; membrane preparation
# Sequence (P29274 whole entry): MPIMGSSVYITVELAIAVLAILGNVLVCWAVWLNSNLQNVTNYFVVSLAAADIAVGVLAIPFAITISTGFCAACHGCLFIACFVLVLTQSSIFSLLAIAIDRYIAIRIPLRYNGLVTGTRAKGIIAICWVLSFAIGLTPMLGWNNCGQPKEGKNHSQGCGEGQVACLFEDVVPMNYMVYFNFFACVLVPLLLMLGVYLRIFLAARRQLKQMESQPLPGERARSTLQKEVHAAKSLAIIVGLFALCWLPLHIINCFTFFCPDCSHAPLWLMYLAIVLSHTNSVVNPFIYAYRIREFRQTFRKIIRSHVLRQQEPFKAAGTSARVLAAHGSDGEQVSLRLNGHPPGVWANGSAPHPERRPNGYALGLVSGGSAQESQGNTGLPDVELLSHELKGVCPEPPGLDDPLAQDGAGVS
# ASSAY_INFO: [3H]-SCH-58261 binding assay, human adenosine A2A receptor (CHO cell membranes, SPA)
# CONDITIONS: recombinant human A2A receptor in CHO membranes; [3H]-SCH-58261 1 nM; Ki by Cheng-Prussoff equation; read-out: hA2 (pKi) (converted)
# Protocol: Human Adenosine A2A Receptor The human adenosine A2A receptor was recombinantly expressed in Chinese hamster ovary (CHO) cells using the semliki forest virus expression system. […] Assay plates were incubated for 1 hour at room temperature before centrifugation and then bound ligand determined using a Packard Topcount scintillation counter. IC50 values were calculated using a non-linear curve fitting program and Ki values calculated using the Cheng-Prussoff equation.
The response must be a number in nM with no trailing unit.

Consider the reported Ki for these compounds:
1. COc1ccc(N2CCOCC2)c2sc(NC(=O)N(C)C3CCC(C(F)(F)F)CC3)nc12 (centres unmarked) ... 20
2. COc1ccc(N2CCOCC2)c2sc(NC(=O)N3CC4CCC(C3)O4)nc12 ... 10
3. COc1ccc(N2CCOCC2)c2sc(NC(=O)N(C)C3CC4CCC3O4)nc12 (single isomer, unassigned) [Example 8] ... 10
4. COc1ccc(N2CCOCC2)c2sc(NC(=O)N(C)C3CC4CCC3O4)nc12 (single isomer, unassigned) [Example 7] ... 3.16

Measured Ki of COC[C@H]1CC[C@H](N(C)C(=O)Nc2nc3c(OC)ccc(N4CCOCC4)c3s2)CC1 : 20

The compound listed as COc1ccc(N2CCOCC2)c2sc(NC(=O)N(C)[C@H]3CC[C@H](CO)CC3)nc12 has a reported Ki of 15.8

Notebook: COc1ccc(N2CCOCC2)c2sc(NC(=O)N(C)[C@H]3CC[C@H](C)CC3)nc12 , Ki read as 15.8

compound COc1ccc(N2CCOCC2)c2sc(NC(=O)N(C)C3CC4CC3CC4O)nc12 (racemic) , Ki observed: 7.94
